The reported measurements were obtained from patent US7214669B2.

system: Human recombinant MMP14 (Homo sapiens, UniProt P50281)
protocolDescription: MMP14 (MTI-MMP) inhibition, 14C collagen release
setupConditions: 35° C., 15 hours; read-out: MMP-14 inhibitory activity, IC50
pIC50: −log10 of the molar value.
Reported pIC50 by item:

compound	boundType	pIC50
C[C@H]1c2c(N)ccc(O)c2C(=O)C2=C(O)[C@]3(O)C(=O)C(C(N)=O)=C(O)C[C@@H]3[C@@H](O)[C@@H]21	=	3.45
CC1c2cccc(O)c2C(=O)C2=C(O)C3(O)C(=O)C(C(N)=O)=C(O)CC3C(O)C21 (stereo not drawn)	=	3.71
CN(C)c1cc(N=[N+]=[N-])c(O)c2c1CC1CC3C(N(C)C)C(O)=C(C(N)=O)C(=O)C3(O)C(O)=C1C2=O (stereo not drawn)	=	4.28
CC(=O)Nc1ccc(O)c2c1C(C)C1C(=C(O)C3(O)C(=O)C(C(N)=O)=C(O)C(N(C)C)C3C1O)C2=O (stereo not drawn)	<	3.00
CC1c2c(N(C)C)ccc(O)c2C(=O)C2=C(O)C3(O)C(=O)C(C(N)=O)=C(O)C(N(C)C)C3C(O)C21 (stereo not drawn)	=	3.11
CC1c2c([N+](=O)[O-])cc(C(C)(C)C)c(O)c2C(=O)C2=C(O)C3(O)C(=O)C(C(N)=O)=C(O)C(N(C)C)C3C(O)C21 (stereo not drawn)	=	4.16

* * *

system: Human recombinant MMP14 (Homo sapiens, UniProt P50281)
protocolDescription: MMP14 (MTI-MMP) inhibition, 14C collagen release
setupConditions: 35° C., 15 hours; read-out: MMP-14 inhibitory activity, IC50
Counter-ions that a name gives are not always drawn.
Reported IC50 by item:

compound	boundType	IC50 [µM]
CC(=O)Nc1cc([N+]#N)c(O)c2c1C(C)C1C(=C(O)C3(O)C(=O)C(C(N)=O)=C(O)C(N(C)C)C3C1O)C2=O (stereo not drawn) [Compound 30]	>	1000
CC(=O)Nc1ccc2c(c1O)C(=O)C1=C(O)C3(O)C(=O)C(C(N)=O)=C(O)C(N(C)C)C3C(O)C1C2C (stereo not drawn) [Compound 16]	=	715
CN(C)c1cc([N+]#N)c(O)c2c1CC1CC3C(N(C)C)C(O)=C(C(N)=O)C(=O)C3(O)C(O)=C1C2=O (stereo not drawn) [Compound 9, HCL]	=	29
CC(=O)N(CC(C)C)c1ccc(O)c2c1C(C)C1C(=C(O)C3(O)C(=O)C(C(N)=O)=C(O)C(N(C)C)C3C1O)C2=O.O=S(=O)(O)O (stereo not drawn) [Compound 29]	=	98
CC1c2ccc(N)c(O)c2C(=O)C2=C(O)C3(O)C(=O)C(C(N)=O)=C(O)CC3C(O)C21 (stereo not drawn) [Compound 36]	=	608
C[C@H]1c2c(N)ccc(O)c2C(=O)C2=C(O)[C@]3(O)C(=O)C(C(N)=O)=C(O)[C@@H](N(C)C)[C@@H]3[C@@H](O)[C@@H]21.O=S(=O)(O)O [Compound 12]	>	1000

* * *

system: Human recombinant MMP9 (Homo sapiens, UniProt P14780)
Sequence (P14780 94-707): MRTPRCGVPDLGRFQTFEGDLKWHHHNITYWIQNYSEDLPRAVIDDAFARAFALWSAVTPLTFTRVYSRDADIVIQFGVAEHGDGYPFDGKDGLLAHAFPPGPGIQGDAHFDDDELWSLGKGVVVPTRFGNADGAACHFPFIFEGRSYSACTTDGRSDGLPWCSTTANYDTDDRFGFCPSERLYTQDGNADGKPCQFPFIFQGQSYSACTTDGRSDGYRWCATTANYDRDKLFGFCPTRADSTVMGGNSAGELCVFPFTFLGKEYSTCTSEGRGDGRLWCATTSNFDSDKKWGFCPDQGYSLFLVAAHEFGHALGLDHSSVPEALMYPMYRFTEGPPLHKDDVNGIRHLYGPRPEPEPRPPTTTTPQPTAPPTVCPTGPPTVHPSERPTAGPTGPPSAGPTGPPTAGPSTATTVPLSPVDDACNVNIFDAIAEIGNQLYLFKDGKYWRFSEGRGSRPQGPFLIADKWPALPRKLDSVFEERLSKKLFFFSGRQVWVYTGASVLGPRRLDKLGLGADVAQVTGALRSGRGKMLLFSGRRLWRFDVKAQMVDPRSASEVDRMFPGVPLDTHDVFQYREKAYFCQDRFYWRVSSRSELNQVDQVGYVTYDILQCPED
protocolDescription: MMP9 (Gelatinase B) inhibition, 14C gelatin release
setupConditions: 37° C., 16 hours; read-out: MMP-9 inhibitory activity, IC50
pIC50: −log10 of the molar value.

compound	system	pIC50
CC1c2ccc([N+](=O)[O-])c(O)c2C(=O)C2=C(O)C3(O)C(=O)C(C(N)=O)=C(O)CC3C(O)C21 (stereo not drawn)	Human recombinant MMP9 (Homo sapiens, UniProt P14780)	3.40
CC1c2ccc([N+]#N)c(O)c2C(=O)C2=C(O)C3(O)C(=O)C(C(N)=O)=C(O)C(N(C)C)C3C(O)C21 (stereo not drawn)	Human recombinant MMP9 (Homo sapiens, UniProt P14780)	4.02
CC(=O)N(CC(C)C)c1ccc(O)c2c1C(C)C1C(=C(O)C3(O)C(=O)C(C(N)=O)=C(O)C(N(C)C)C3C1O)C2=O.O=S(=O)(O)O (stereo not drawn)	Human recombinant MMP9 (Homo sapiens, UniProt P14780)	3.76
